System: T. b. brucei Lab 110 EATRO
Assay Summary: In vivo efficacy in infected mice
Design: species or system Trypanosoma brucei brucei
Condition Parameters: mice, 5 mg/kg/day i.p. for 3 days
Measured Endpoint: MSD

Examples with answers:
{"Smiles Structure": "N=C(N)c1ccc(NC(=O)CCCCC(=O)Nc2ccc(C(=N)N)cc2)cc1", "Assay Result": ">30 days"}
{"Smiles Structure": "Cl.Cl.N=C(NC1CCC1)c1ccc(N2CCN(c3ccc(C(=N)NC4CCC4)cc3)CC2)cc1", "Assay Result": "11 days"}
{"Smiles Structure": "CCNC(=N)c1ccc(N2CCN(c3ccc(C(=N)NCC)cc3)CC2)cc1.Cl.Cl", "Assay Result": "18 days"}
{"Smiles Structure": "N=C(N)c1ccc(NC(=O)CCCCCC(=O)Nc2ccc(C(=N)N)cc2)cc1", "Assay Result": ">30 days"}
{"Smiles Structure": "N=C(N)c1ccc(OCc2cccc(COc3ccc(C(=N)N)cc3)c2)cc1", "Assay Result": "18 days"}

# molecule N=C(N)c1ccc(NC(=O)CCCCCCC(=O)Nc2ccc(C(=N)N)cc2)cc1 ; its MSD = >30 days

For N=C(N)c1ccc(NC(=O)CCCCCCCCC(=O)Nc2ccc(C(=N)N)cc2)cc1 the molecule record lists MSD as >30 days

Reported MSD for Cl.Cl.N=C(NC1CCCCCC1)c1ccc(N2CCN(c3ccc(C(=N)NC4CCCCCC4)cc3)CC2)cc1 was 9 days

* * *

Test system: T. b. rhodesiense KETRI 243
Assay Summary: In vitro trypanocidal activity, bloodforms in HMI-18 medium, Coulter counts
Type: cell-based, Trypanosoma brucei rhodesiense
Condition Parameters: 48 h exposure
Measured Endpoint: IC50 (nM)
Value expressed in nM; do not type the unit.

{"Compound": "N=C(N)c1ccc(NC(=O)CCCCC(=O)Nc2cccc(C(=N)N)c2)cc1 [compound 0721]", "IC50 (nM)": 7}

Tested system T. b. rhodesiense KETRI 243; IC50 recorded for N=C(N)c1ccc(NC(=O)CCCCCC(=O)Nc2ccc(C(=N)N)cc2)cc1 [compound 0706] was 2.05

Field IC50 (T. b. rhodesiense KETRI 243), entry CCOC(=O)c1ccc(N2CCN(c3ccc(C(=O)OCC)cc3)CC2)cc1 [compound 0118] : 350

Entry C(=C1CCCN(c2ccc(C3=NCCN3)cc2)C1)c1ccc(C2=NCCN2)cc1.Cl.Cl (mixture of isomers) [3SF] , T. b. rhodesiense KETRI 243 data, IC50 value: 84

Lab entry: T. b. rhodesiense KETRI 243 assay, compound c1ccc(N2CCN(c3ccccc3)C2c2ccc(N3CCN(c4ccc(C5N(c6ccccc6)CCN5c5ccccc5)cc4)CC3)cc2)cc1 [compound 0109] , IC50 = 335

Record CCCCCCCCCNC(=N)c1ccc(N2CCN(c3ccc(C(=N)NCCCCCCCCC)cc3)CC2)cc1.Cl.Cl [compound 0132] has T. b. rhodesiense KETRI 243 IC50 equal to 210

Bench note, T. b. rhodesiense KETRI 243: entry N=C(N)c1ccc(OCc2cccc(COc3ccc(C(=N)N)cc3)c2)cc1 [compound 0512] , its IC50 = 1.5

Fill in: T. b. rhodesiense KETRI 243 IC50 for N=C(N)c1ccc(OC(=O)c2ccc(C(=O)Oc3ccc(C(=N)N)cc3)cc2)cc1 [compound 0432] = 3100
